tested on: normal cells and different lung cancer cell lines; assay: Inhibition of cell proliferation, CCK8 method, comparison in words over the whole cell panel; assay type: cell-based, human; conditions: BEAS-2B, HBE, H460, A549, H1975, HCC827; CCK8, 48 h
endpoint: inhibitory effect on different cell lines (in words)

C=CC(=O)Nc1cccc(Oc2nc(Nc3ccc(N4CCN(C)CC4)cc3)nc3[nH]ccc23)c1 [Compound 3] | lower

###

test system: A549 cells; experiment: Inhibition of cell proliferation, CCK8 method; format: cell-based, human; conditions: Homo sapiens, A549 lung adenocarcinoma cells, 48 h, read-out: Inhibitory activity (IC50) against A549
// NB: equality with 6 µM counts as f; only IC50 strictly below is t

Some solved entries appear below for comparison.
C=CC(=O)Nc1cccc(Oc2nc(Nc3ccc(N4CCN(C)CC4)c(N)c3)nc3c2ccn3COC(=O)C(C)(C)C)c1 | f
C=CC(=O)Nc1cccc(Oc2nc(Nc3ccc(N4CCN(C)CC4)c(I)c3)nc3c2ccn3COC(=O)C(C)(C)C)c1 | f
C=CC(=O)Nc1cccc(Oc2nc(Nc3ccc(N4CCN(C)CC4)c(F)c3)nc3[nH]ccc23)c1 [Avitinib, reference compound] | t
C=CC(=O)Nc1cccc(Oc2nc(Nc3ccc(N4CCN(C)CC4)c(OC)c3)nc3[nH]ccc23)c1 | f

(Q) Lab log: compare recorded IC50 with 6 µM; is it strictly lower for C=CC(=O)Nc1cccc(Oc2nc(Nc3ccc(N4CCN(C)CC4)c([N+](=O)[O-])c3)nc3[nH]ccc23)c1 ?
(A) t

(Q) Another compound to look at: C=CC(=O)Nc1cccc(Oc2nc(Nc3ccc(N4CCN(C)CC4)c([N+](=O)[O-])c3)nc3c2ccn3COC(=O)C(C)(C)C)c1
(A) t
